tested on: human GABA α1β3β2 receptors; experiment: GABAa, 3H-muscimol binding assay; conditions: parent compound without R^4 heteroaryl; activity at 10 μM as percentage of activity of control compound P18 at 10 μM
The following compounds are listed with their measured % GABA Parent values.
Enter your answer as a number in %; do not include the unit.

Worked examples, 3 compounds total:
COMPOUND: CC(C)(O)C(=O)c1oc2nc(-c3ccccc3Cl)c(-c3ccc(Cl)cc3)cc2c1N [Example P13, reference compound]
% GABA Parent (%): 91
--
COMPOUND: Cc1c(C(=O)CC(C)C)oc2nc(-c3ccccc3Cl)c(-c3ccc(Cl)cc3)cc12 [Example P10, reference compound]
% GABA Parent (%): 59
--
COMPOUND: Cc1c(C(=O)C(C)(C)C)oc2nc(-c3ccccc3Cl)c(-c3ccc(Cl)cc3)cc12 [Example P8, reference compound]
% GABA Parent (%): 25

Query: Give % GABA Parent for Cc1c(S(=O)(=O)C(C)(C)C)oc2nc(-c3ccccc3Cl)c(-c3ccc(Cl)cc3)cc12 [Example P9, reference compound]
Reply: 29
